- target_desc: GSK3B (human) (UniProt P49841)
- Sequence (P49841 whole entry, looked up): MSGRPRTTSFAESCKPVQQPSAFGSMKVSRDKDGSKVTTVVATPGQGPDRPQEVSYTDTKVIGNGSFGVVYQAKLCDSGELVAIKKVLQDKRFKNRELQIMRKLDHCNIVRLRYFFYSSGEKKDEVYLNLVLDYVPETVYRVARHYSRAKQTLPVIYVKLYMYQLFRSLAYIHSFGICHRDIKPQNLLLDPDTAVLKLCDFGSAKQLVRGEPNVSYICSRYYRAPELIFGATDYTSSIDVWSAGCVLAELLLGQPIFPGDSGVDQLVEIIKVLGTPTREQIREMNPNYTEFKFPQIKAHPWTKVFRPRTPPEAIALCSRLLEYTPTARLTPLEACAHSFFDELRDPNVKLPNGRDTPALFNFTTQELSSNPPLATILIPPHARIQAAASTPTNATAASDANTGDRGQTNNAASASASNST
- measurement_protocol: radiometric filter-binding kinase assay, Kinase HotSpot
- condition_label: compound 0.5 µM; ATP 10 µM
property_name: residual activity (%)
Report the value in % with no unit label.

Here are 2 compounds together with their reported answers.
| chemical_structure | residual activity / % |
| --- | --- |
| O=C1NC(=O)c2c1c1c3ccccc3[nH]c1n1cncc21 | 30.8 |
| CN(C)c1ccc(/C=C2\C(=O)Nc3ccccc32)cc1 | 111 |

Task: Entry COc1cc2ncnc(Nc3ccc(OCc4ccccc4)cc3)c2cc1OC has what residual activity?
Result: 119

Task: Try this compound too: O=C1C(Cl)=C(N2C(=O)CCC2=O)C(=O)c2ccccc21
Result: 100

Task: Request: CC(C)(C)c1cc(C=C(C#N)C#N)cc(Br)c1O
Result: 107

Task: // next record c1ccc2c(-c3ccncc3)c[nH]c2c1
Result: 104

Task: And the next one, N#Cc1c[nH]c2c[nH]/c(=N\Cc3cccnc3)cc2/c1=N\c1ccc(F)c(Cl)c1 ?
Result: 99.8

Task: Another compound to look at: NC(=O)c1cccc(-c2cc(Nc3ccc(OC(F)(F)F)cc3)ncn2)c1
Result: 110

Task: // next record O=C1Nc2ccc(Br)cc2/C1=C\c1cc2c([nH]1)CCCC2
Result: 94.1

Task: What do we get for COc1ccc(Cl)cc1NC(=O)Nc1cc(C)nc2ccccc12 ?
Result: 91.6

Task: Repeat with COc1ccc2c(c1)/C(=C/c1cnc[nH]1)C(O)=N2
Result: 35.4
